Every entry's value here was drawn from ChEMBL document CHEMBL1140069.

- System: Cryptococcus neoformans
- Assay Text: Antifungal activity against Cryptococcus neoformans ATCC 32264 after 48 hrs by broth microdilution technique
- Assay type: functional
- Condition Label: ATCC 32264, 48 h
// reported MIC per item

Check out these entries, answers already filled in.
Given Smiles	Experimental Endpoint	Result
c1ccc2nc(-c3ccc4c(c3)OCO4)ccc2c1	MIC	> 250 mg/L
Cc1cc(C)c2ccc(-c3ccccc3)nc2c1	MIC	> 250 mg/L
Cc1ccc([N+](=O)[O-])c2c(C)cc(-c3ccncc3)nc12	MIC	> 250 mg/L

Look at this compound and give its reported MIC. Cc1ccc2nc(-c3ccccc3)ccc2c1
250 mg/L

Look at this compound and give its reported MIC. Cc1cc(-c2cccnc2)nc2ccc(Br)cc12
250 mg/L

Look at this compound and give its reported MIC. Clc1ccc2nc(-c3ccccc3)ccc2c1
> 250 mg/L

Look at this compound and give its reported MIC. COc1ccc2nc(-c3ccco3)ccc2c1
> 250 mg/L

====

- Tested on: Cryptococcus neoformans
- Assay Text: Antimicrobial activity against Cryptococcus neoformans IM 961951 isolate at 6.25 ug/ml after 48 hrs
- Type: functional
Experimental Endpoint: inhibition at 6.25 µg/mL (%)
Give the quantity in %, number only.

Check out these entries, answers already filled in.
Compound	Unit Text	inhibition at 6.25 µg/mL
CC(=O)N1CCN(c2ccc(OCC3COC(Cn4ccnc4)(c4ccc(Cl)cc4Cl)O3)cc2)CC1 (stereo not given)	%	100
c1ccc2nc(-c3ccncc3)ccc2c1	%	4
Cc1cc(-c2ccncc2)nc2ccccc12	%	4

Look at this compound and give its reported inhibition at 6.25 µg/mL. c1ccc(-c2ccc3ccccc3n2)cc1
0

Look at this compound and give its reported inhibition at 6.25 µg/mL. C[C@@H]1[C@H](O)[C@@H](C)/C=C/C=C/C=C/C=C/C=C/C=C/C=C/[C@H](O[C@@H]2O[C@H](C)[C@@H](O)[C@H](N)[C@@H]2O)C[C@@H]2O[C@](O)(C[C@@H](O)C[C@@H](O)[C@H](O)CC[C@@H](O)C[C@@H](O)CC(=O)O[C@H]1C)C[C@H](O)[C@H]2C(=O)O
100

====

- System: Cryptococcus neoformans
- Assay Text: Antifungal activity against Cryptococcus neoformans ATCC 32264 after 48 hrs by broth microdilution technique
- Type: functional
- Condition Label: ATCC 32264, 48 h
// reported MIC per item

Check out these entries, answers already filled in.
Compound	Result
CCc1cccc2c(C)cc(-c3ccncc3)nc12	> 250 µg/mL
Cc1ccc2nc(-c3ccc4c(c3)OCO4)ccc2c1	> 250 µg/mL
O=[N+]([O-])c1cccc(-c2ccc3cc(Cl)ccc3n2)c1	> 250 µg/mL
COc1ccc2nc(-c3ccc4c(c3)OCO4)ccc2c1	> 250 µg/mL
C[C@@H]1[C@H](O)[C@@H](C)/C=C/C=C/C=C/C=C/C=C/C=C/C=C/[C@H](O[C@@H]2O[C@H](C)[C@@H](O)[C@H](N)[C@@H]2O)C[C@@H]2O[C@](O)(C[C@@H](O)C[C@@H](O)[C@H](O)CC[C@@H](O)C[C@@H](O)CC(=O)O[C@H]1C)C[C@H](O)[C@H]2C(=O)O [AMPHOTERICIN B]	0.25 µg/mL
O=[N+]([O-])c1ccc2nc(-c3ccccc3)ccc2c1	> 250 µg/mL
Cc1cc(-c2ccccc2)nc2ccccc12	250 µg/mL
COc1ccc2nc(-c3cccs3)ccc2c1	> 250 µg/mL

Look at this compound and give its reported MIC. CC(=O)N1CCN(c2ccc(OCC3COC(Cn4ccnc4)(c4ccc(Cl)cc4Cl)O3)cc2)CC1 (stereo unspecified) [KETOCONAZOLE]
0.25 µg/mL

Look at this compound and give its reported MIC. c1ccc(-c2ccc3cc4c(cc3n2)OCO4)cc1
125 µg/mL

Look at this compound and give its reported MIC. CCc1ccc2ccc(-c3ccc4c(c3)OCO4)nc2c1
> 250 µg/mL

Look at this compound and give its reported MIC. Nc1cccc(-c2ccc3cc(Cl)ccc3n2)c1
> 250 µg/mL

Look at this compound and give its reported MIC. Oc1ccc2nc(-c3ccccc3)ccc2c1
> 250 µg/mL

Look at this compound and give its reported MIC. c1ccc2nc(-c3ccncc3)ccc2c1
50 µg/mL
